- Study System: CDK1/cyclinB1 (Homo sapiens)
- Construct: purchased Carna Biosciences 04-102
- Sequence (P06493 whole entry): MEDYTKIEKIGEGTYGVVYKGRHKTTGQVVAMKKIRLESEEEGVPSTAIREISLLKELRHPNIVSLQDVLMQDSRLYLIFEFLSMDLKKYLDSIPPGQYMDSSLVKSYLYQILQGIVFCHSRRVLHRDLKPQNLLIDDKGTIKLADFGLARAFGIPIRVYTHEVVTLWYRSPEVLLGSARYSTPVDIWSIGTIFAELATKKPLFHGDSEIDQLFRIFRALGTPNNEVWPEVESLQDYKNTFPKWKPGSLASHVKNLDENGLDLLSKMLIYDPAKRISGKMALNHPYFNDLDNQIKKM
- Sequence (P14635 whole entry partner): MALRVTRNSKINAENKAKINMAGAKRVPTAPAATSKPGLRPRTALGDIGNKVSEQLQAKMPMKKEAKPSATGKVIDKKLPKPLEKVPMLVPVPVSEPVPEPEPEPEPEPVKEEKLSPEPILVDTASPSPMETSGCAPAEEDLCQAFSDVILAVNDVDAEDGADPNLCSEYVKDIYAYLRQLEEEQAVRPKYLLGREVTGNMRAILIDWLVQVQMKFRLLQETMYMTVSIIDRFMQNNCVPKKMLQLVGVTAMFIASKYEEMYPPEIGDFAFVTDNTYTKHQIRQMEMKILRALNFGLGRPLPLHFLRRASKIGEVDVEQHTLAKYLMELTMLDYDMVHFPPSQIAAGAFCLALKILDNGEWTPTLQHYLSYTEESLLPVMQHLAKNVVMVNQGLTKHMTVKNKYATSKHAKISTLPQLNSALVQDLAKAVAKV
- Assay Protocol: Cyclin-dependent kinase activity assay (continuous ATP coupling assay), CDK1/cyclinB1
- Format: biochemical
- Settings: CDK1/cyclinB1 10 nM, ATP 200 μM, Histone1 copeptide 100 μM, 15 min preincubation, pH 7.5, 1% DMSO
Answer each item with its documented IC50.

List IC50 for every entry below, keeping the order given.
1. CNS(=O)(=O)c1ccc(Nc2ncc(C(F)(F)F)c(-n3ccc(C4CC4)n3)n2)cc1
2. O=S(=O)(NCCO)c1ccc(Nc2ncc(C(F)(F)F)c(-n3cccn3)n2)cc1F
3. CC(C)(O)Cc1cnn(-c2nc(Nc3ccc(S(N)(=O)=O)cc3)ncc2C(F)(F)F)c1
4. CNS(=O)(=O)c1ccc(Nc2ncc(C(F)(F)F)c(-n3cc(C4CCCN4)cn3)n2)cc1 (single isomer, unassigned)
5. CNS(=O)(=O)c1ccc(Nc2ncc(C(F)(F)F)c(-n3cc(C4CCOC4)cn3)n2)cc1 (single isomer, unassigned) [Example 90]
6. CNS(=O)(=O)c1ccc(Nc2ncc(C(F)(F)F)c(-n3cc(N4CCCC4)cn3)n2)cc1
7. CC(C)(O)CCc1cnn(-c2nc(NC3CCN(S(C)(=O)=O)CC3)ncc2C(F)(F)F)c1

["≥ 100 nM", "≥ 100 nM", "10 to 100 nM", "10 to 100 nM", "≥ 100 nM", "≥ 100 nM", "≥ 100 nM"]

====

- Study System: CDK6/cyclinD3 (Homo sapiens)
- Sequence (Q00534 whole entry): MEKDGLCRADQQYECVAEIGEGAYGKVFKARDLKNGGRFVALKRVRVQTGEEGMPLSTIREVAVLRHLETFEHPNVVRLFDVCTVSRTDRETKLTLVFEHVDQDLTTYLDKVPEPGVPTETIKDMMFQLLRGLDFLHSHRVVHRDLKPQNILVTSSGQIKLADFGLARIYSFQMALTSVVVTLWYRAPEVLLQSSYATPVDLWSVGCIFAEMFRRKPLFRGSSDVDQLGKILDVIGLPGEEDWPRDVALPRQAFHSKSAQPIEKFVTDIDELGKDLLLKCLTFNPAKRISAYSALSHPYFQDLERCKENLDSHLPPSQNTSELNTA
- Sequence (P30281 whole entry partner): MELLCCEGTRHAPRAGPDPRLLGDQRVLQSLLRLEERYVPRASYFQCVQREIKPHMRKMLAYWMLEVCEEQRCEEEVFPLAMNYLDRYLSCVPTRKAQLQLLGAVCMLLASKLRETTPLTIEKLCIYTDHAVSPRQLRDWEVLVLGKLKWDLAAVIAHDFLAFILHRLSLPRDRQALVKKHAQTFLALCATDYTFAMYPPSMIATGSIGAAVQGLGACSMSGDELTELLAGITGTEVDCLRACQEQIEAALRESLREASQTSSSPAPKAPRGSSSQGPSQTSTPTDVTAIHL
- Assay Protocol: Cyclin-dependent kinase activity assay (continuous ATP coupling assay), CDK6/cyclinD3
- Settings: CDK6/cyclinD3 25 nM, ATP 500 μM, Rb copeptide 500 μM, 15 min preincubation, pH 7.5, 1% DMSO
pIC50: −log10 of the molar value.
For each entry below, report its pIC50 value.

Past entries and their recorded results:
| Compound | pIC50 |
| --- | --- |
| CNS(=O)(=O)c1ccc(Nc2ncc(C(F)(F)F)c(-n3ncc(CC(C)(C)O)c3C)n2)cc1 | ≤ 7.00 |
| [2H]C([2H])([2H])NS(=O)(=O)c1ccc(Nc2ncc(C(F)(F)F)c(-n3cc(CCO)cn3)n2)cc1 | 7.00 to 8.00 |

List reported pIC50 for each of these compounds:
1. O=S(=O)(CCCO)c1ccc(Nc2ncc(C(F)(F)F)c(-n3cccn3)n2)cc1
2. O=S(=O)(NC1CC(F)(F)C1)c1ccc(Nc2ncc(C(F)(F)F)c(-n3cccn3)n2)cc1
3. CNS(=O)(=O)c1ccc(Nc2ncc(C(F)(F)F)c(-n3cc([C@H]4C[C@@](C)(O)C4)cn3)n2)cc1 (single isomer, unassigned)

1. ≤ 7.00
2. ≤ 7.00
3. 7.00 to 8.00

Recorded pIC50 (compound "CNS(=O)(=O)c1ccc(Nc2ncc(C(F)F)c(-n3cccn3)n2)cc1" ): ≤ 7.00

====

- Study System: CDK2/cyclinE1 (Homo sapiens)
- Assay Protocol: Cyclin-dependent kinase activity assay (continuous ATP coupling assay), CDK2/cyclinE1
- Settings: CDK2/cyclinE1 5 nM, ATP 300 μM, Rb copeptide 100 μM, 15 min preincubation, pH 7.5, 1% DMSO
Assay Endpoint: IC50

| Compound | Measured |
| --- | --- |
| NS(=O)(=O)c1ccc(Nc2ncc(C(F)(F)F)c(-n3cccn3)n2)cc1 [Example 18] | ≤ 10 nM |

Your task in this section: give IC50 for each listed record.
1. CNS(=O)(=O)c1ccc(Nc2ncc(C(F)(F)F)c(-n3cc(C4CCOC4)cn3)n2)cc1 (single isomer, unassigned) [Example 89]
2. CNS(=O)(=O)c1ccc(Nc2ncc(C(F)(F)F)c(-n3cc([C@@H]4CCC[C@@H]4O)cn3)n2)cc1 (single isomer, unassigned) [Example 76]
3. CNS(=O)(=O)c1ccc(Nc2ncc(C(F)(F)F)c(-n3cc([C@H]4C[C@@](C)(O)C4)cn3)n2)cc1 (single isomer, unassigned) [Example 105]
4. COCCNS(=O)(=O)c1ccc(Nc2ncc(C(F)(F)F)c(-n3cccn3)n2)cc1 [Example 127]

≤ 10 nM
10 to 100 nM
10 to 100 nM
10 to 100 nM

Item: CNS(=O)(=O)c1ccc(Nc2ncc(C(F)(F)F)c(-n3nccc3C3CC3)n2)cc1 [Example 57] | IC50: 10 to 100 nM
